system: RXF 393 renal; test: NCI tumour cell line growth inhibition, 48 h
experimental-readout: TGI (µM)
Answer in µM, number only, no unit symbol.

c1ccc2c(c1)N=C(c1cccc3ccccc13)CC(c1cccc3ccccc13)S2 (stereo not given) :: 16.5
O=C1c2ccccc2-c2c1c1ccccc1c(=O)n2CCNCCCNCCn1c2c(c3ccccc3c1=O)C(=O)c1ccccc1-2 :: 0.577

Continue with the molecule presented below.
Exam item: Data request, read-out TGI, for CCN(Cc1c(F)cccc1F)c1ccc(CO)c(Cl)c1
Marked response: 24.2

---

system: DU-145 prostate; experiment: NCI tumour cell line growth inhibition, 48 h; in the data active means GI50 below about 0.43 µM; inactive means the rest
Parameter call: string, one of TRUE = active, FALSE = inactive

NCCN1CCN(c2nccc(-c3ccc4ccccc4c3)n2)CC1 :: FALSE
CC1=C(C)C(=O)O[C@@H]([C@](C)(O)[C@]2(O)CC[C@@]3(O)[C@@H]4C[C@H]5O[C@]56CC=CC(=O)[C@]6(C)[C@H]4CC[C@]23C)C1 :: FALSE
Clc1ccc(OCc2nnc3n2N=C(c2ccc(Cl)cc2Cl)CS3)c(Cl)c1 :: FALSE
Cc1ccc2/c(=C/c3ccc(N(C)C)cc3)c3cc(-c4ccccc4)[n+](C)n3c2c1 :: TRUE
N#Cc1c(-c2ccccc2)nc2c(c(-c3ccccc3)nn2-c2ccccc2)c1-c1ccc(O)cc1 :: FALSE
CNC(=O)c1cc(Oc2ccc(NC(=O)Nc3ccc(Cl)c(OC(F)(F)F)c3)c(F)c2)ccn1 :: FALSE
COc1cc(/C=C2\CC3C4CC=C5CC(N6CCCC6)CC[C@]5(C)C4CC[C@]3(C)C2OC(C)=O)ccc1OCCN1CCCC1 (stereo partly drawn) :: FALSE
CCCNCc1cc(C)cc2c1nc(N1CCNCC1)n2Cc1cc(C)c(F)c(C)c1 :: FALSE

Exam item: Short answer needed: outcome of this test for O=C1c2c(c3c4ccc(Br)cc4oc3c3[nH]c4ccccc4c23)C(=O)N1O ?
Marked response: FALSE

Exam item: And for CN(C)CCNC(=O)Nc1c(C#N)[n+]([O-])c2cc(Cl)c(Cl)cc2[n+]1[O-] ?
Marked response: FALSE

Exam item: Okay, and CCN(Cc1c(F)cccc1F)c1ccc(CO)c(Cl)c1 ?
Marked response: FALSE

Exam item: // same read-out, input: NC(N)=N/N=C/c1c(-c2ccccn2)nc2sc(Cl)cn12
Marked response: FALSE

Exam item: What do you have for COc1ccc2c(c1)C=CC(C#N)N2C(=O)c1ccccc1 (stereo not drawn) ?
Marked response: TRUE
